target_of_assay: Receptor tyrosine-protein kinase erbB-2 (Homo sapiens)
Sequence (P04626 whole entry): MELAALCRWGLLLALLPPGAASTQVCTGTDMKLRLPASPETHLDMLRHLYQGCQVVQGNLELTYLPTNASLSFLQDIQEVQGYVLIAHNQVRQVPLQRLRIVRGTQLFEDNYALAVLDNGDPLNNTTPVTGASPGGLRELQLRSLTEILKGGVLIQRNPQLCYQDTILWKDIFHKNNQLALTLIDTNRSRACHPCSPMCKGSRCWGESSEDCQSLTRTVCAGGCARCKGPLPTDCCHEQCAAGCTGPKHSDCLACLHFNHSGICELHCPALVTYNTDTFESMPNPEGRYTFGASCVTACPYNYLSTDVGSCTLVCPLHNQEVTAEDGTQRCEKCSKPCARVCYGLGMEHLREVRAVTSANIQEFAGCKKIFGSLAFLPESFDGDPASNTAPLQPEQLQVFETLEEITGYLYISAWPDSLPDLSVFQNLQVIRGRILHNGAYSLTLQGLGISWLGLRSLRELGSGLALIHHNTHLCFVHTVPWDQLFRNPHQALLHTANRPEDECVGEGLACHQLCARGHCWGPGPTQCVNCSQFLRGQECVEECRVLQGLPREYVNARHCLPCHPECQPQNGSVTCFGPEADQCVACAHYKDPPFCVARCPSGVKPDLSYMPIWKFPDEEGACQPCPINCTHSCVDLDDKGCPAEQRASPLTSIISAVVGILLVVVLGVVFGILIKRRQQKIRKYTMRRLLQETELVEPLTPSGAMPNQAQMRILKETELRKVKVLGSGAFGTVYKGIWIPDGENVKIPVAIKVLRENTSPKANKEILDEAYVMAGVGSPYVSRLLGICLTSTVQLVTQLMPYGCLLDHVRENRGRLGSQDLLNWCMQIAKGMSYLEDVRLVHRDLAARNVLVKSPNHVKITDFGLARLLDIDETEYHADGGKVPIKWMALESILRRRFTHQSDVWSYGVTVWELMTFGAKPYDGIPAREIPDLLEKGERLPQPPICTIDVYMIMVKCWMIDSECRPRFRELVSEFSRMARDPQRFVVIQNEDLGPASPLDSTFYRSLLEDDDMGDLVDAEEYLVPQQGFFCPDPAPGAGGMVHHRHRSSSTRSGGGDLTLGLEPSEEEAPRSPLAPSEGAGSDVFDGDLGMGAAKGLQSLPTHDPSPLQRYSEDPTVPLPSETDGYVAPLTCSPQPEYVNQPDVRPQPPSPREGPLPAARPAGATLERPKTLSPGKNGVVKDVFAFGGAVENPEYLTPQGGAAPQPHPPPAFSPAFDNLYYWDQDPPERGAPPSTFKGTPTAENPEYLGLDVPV
experiment_summary: Inhibition of HER2
pIC50: −log10 of the molar value.
Measured pIC50 accompanies every entry in the list below.

FC(F)(F)c1c[nH]c(-c2n[nH]cc2/C=C/c2cccnc2)n1	< 4.00
COc1ccc2nc(-c3n[nH]cc3/C=C/c3cncc4ccccc34)[nH]c2c1	< 4.00

Query molecule follows.
Req: Find the recorded pIC50 belonging to N#Cc1c[nH]c(-c2n[nH]cc2/C=C/c2cccnc2)n1 and report it.
Resp: < 4.00

---

Tested on: HCT-116
experiment_summary: Antiproliferative activity against human HCT116 cells
Format: functional, cell-based
metric: IC50 (nM)

CCNCc1cncc(/C=C/c2c[nH]nc2-c2nc3ccc(OC)cc3[nH]2)c1	190
N#Cc1c[nH]c(-c2n[nH]cc2/C=C/c2cccnc2)n1	70700
CCNC(=O)c1cncc(/C=C/c2c[nH]nc2-c2nc3ccc(OC)cc3[nH]2)c1	2500
COC(=O)c1cncc(/C=C/c2c[nH]nc2-c2nc3ccc(OC)cc3[nH]2)c1	3100
COc1ccc2nc(-c3n[nH]cc3/C=C/c3cnccc3C)[nH]c2c1	3200

1. CCNCc1cncc(/C=C/c2c[nH]nc2-c2nc(C(F)(F)F)c[nH]2)c1
2. COc1ccc2nc(-c3n[nH]cc3/C=C/c3cncc4ccccc34)[nH]c2c1
3. FC(F)(F)c1c[nH]c(-c2n[nH]cc2/C=C/c2cccnc2)n1
4. COc1cncc(/C=C/c2c[nH]nc2-c2nc3ccc(OC)cc3[nH]2)c1
Req: Place the items in sequence of falling IC50. Output spec: labels arranged per the requested ranking.
Resp: 3, 2, 1, 4

---

Test system: HeLa
experiment_summary: Antiproliferative activity against human HeLa cells
Type: functional, cell-based
pIC50: −log10 of the molar value.
metric: pIC50

COc1ccc2nc(-c3n[nH]cc3/C=C/c3cnccc3C)[nH]c2c1	5.55

1. CCNC(=O)c1cncc(/C=C/c2c[nH]nc2-c2nc3ccc(OC)cc3[nH]2)c1
2. COc1ccc2nc(-c3n[nH]cc3/C=C/c3cccnc3)[nH]c2c1
Req: Looking at recorded values for pIC50, does 1 or 2 come in lower? Answer = label.
Resp: 1

---

target_of_assay: Vascular endothelial growth factor receptor 2 (Homo sapiens)
Sequence (P35968 whole entry): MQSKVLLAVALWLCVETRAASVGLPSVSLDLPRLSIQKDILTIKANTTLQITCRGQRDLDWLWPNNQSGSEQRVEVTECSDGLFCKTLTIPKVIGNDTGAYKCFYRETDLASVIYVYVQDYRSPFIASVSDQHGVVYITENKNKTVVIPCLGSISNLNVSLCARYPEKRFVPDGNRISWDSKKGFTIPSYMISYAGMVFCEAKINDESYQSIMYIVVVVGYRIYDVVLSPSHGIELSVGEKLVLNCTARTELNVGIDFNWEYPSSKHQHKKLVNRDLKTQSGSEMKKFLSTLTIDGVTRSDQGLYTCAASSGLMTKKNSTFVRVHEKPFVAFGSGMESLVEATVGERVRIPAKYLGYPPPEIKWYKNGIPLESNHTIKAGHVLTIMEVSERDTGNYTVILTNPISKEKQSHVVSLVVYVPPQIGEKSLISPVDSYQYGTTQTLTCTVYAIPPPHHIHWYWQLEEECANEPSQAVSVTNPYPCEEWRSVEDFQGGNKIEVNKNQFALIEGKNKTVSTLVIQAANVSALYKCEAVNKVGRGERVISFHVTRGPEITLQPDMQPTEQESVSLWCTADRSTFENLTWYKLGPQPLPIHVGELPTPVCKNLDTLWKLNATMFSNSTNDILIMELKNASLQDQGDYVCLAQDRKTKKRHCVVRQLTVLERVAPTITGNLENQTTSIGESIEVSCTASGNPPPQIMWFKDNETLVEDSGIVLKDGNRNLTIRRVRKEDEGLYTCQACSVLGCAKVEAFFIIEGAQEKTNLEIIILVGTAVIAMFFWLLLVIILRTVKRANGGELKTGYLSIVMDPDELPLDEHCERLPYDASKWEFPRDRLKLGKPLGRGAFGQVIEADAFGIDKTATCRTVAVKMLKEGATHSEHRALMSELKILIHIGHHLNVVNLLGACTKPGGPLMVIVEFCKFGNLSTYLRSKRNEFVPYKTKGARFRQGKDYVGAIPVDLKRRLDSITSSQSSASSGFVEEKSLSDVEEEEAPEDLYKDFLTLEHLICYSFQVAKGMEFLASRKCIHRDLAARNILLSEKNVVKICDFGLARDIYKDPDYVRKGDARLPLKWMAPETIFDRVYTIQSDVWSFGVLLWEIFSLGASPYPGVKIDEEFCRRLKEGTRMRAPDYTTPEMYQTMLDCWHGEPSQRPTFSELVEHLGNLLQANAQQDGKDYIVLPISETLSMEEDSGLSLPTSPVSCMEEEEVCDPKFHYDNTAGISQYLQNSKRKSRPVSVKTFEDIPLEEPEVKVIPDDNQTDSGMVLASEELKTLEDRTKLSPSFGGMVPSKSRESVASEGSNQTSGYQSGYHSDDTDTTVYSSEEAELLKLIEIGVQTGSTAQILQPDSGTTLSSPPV
experiment_summary: Inhibition of VEGFR2
pIC50: −log10 of the molar value.
metric: pIC50

COc1ccc2nc(-c3n[nH]cc3/C=C/c3cncc4ccccc34)[nH]c2c1	6.21
CCNC(=O)c1cncc(/C=C/c2c[nH]nc2-c2nc3ccc(OC)cc3[nH]2)c1	5.87
COc1cncc(/C=C/c2c[nH]nc2-c2nc3ccc(OC)cc3[nH]2)c1	6.19

P. CCNCc1cncc(/C=C/c2c[nH]nc2-c2nc(C(F)(F)F)c[nH]2)c1
Q. COc1ccc2nc(-c3n[nH]cc3/C=C/c3cccnc3)[nH]c2c1
R. FC(F)(F)c1c[nH]c(-c2n[nH]cc2/C=C/c2cncc3ccccc23)n1
Req: Please list these compounds in decreasing order of pIC50. Please, when replying, give the labels in the order that was requested.
Resp: Q, R, P
(Q: 6.01, R: 5.51, P: 5.00)

---

System: A-375
experiment_summary: Antiproliferative activity against human A375 cells
Format: functional, cell-based
metric: IC50 (µM)

Answered cases to consult:
COC(=O)c1cncc(/C=C/c2c[nH]nc2-c2nc3ccc(OC)cc3[nH]2)c1	3.1
COc1ccc2nc(-c3n[nH]cc3/C=C/c3cccnc3)[nH]c2c1	2.5
CN1CCN(c2ccc3nc(-c4n[nH]cc4/C=C/c4cccnc4)[nH]c3c2)CC1	0.86
COc1ccc2nc(-c3n[nH]cc3/C=C/c3cncc4ccccc34)[nH]c2c1	3
FC(F)(F)c1c[nH]c(-c2n[nH]cc2/C=C/c2cncc3ccccc23)n1	5.6
COc1ccc2nc(-c3n[nH]cc3/C=C/c3cnccc3C)[nH]c2c1	4.3

a. CCNC(=O)c1cncc(/C=C/c2c[nH]nc2-c2nc3ccc(OC)cc3[nH]2)c1
b. COc1cncc(/C=C/c2c[nH]nc2-c2nc3ccc(OC)cc3[nH]2)c1
c. CCNCc1cncc(/C=C/c2c[nH]nc2-c2nc3ccc(OC)cc3[nH]2)c1
d. CCNCc1cncc(/C=C/c2c[nH]nc2-c2nc(C(F)(F)F)c[nH]2)c1
e. FC(F)(F)c1c[nH]c(-c2n[nH]cc2/C=C/c2cccnc2)n1
Req: Returns the items ordered by IC50, from maximum to minimum. Answer by listing the labels in the requested order.
Resp: e, d, a, b, c
(e: 47 µM, d: 7.4 µM, a: 3.6 µM, b: 0.91 µM, c: 0.55 µM)
